Tested on: biofilm-producing Staphylococcus epidermidis strains
experiment.description: Biofilm eradication (MBEC Assay Kit)
Type: cell-based
run.parameters: clinical strain 12 (Table S4)
quantity.name: MBEC (µg/mL)
I only need the number, in µg/mL, no unit after it.

compound: O=S(=O)(NC1CCN(CCC(Oc2ccc(C(F)(F)F)cc2)c2ccccc2)CC1)c1cccc(Cl)c1 (stereo not shown)
unit: µg/mL
MBEC: 125

compound: CC(=O)NC[C@H]1CN(c2ccc(N3CCOCC3)c(F)c2)C(=O)O1 [linezolid, reference compound]
unit: µg/mL
MBEC: 50

compound: O=S(=O)(NC1CCN(CCC(Oc2ccc(C(F)(F)F)cc2)c2cccs2)CC1)c1cccc(Cl)c1 (stereo not shown)
unit: µg/mL
MBEC: 125

// below: MBEC requested for another compound
(Q) Quick one: give measured MBEC for O=C(Nc1cccc(Cl)c1)NC1CCN(CCC(Oc2ccc(C(F)(F)F)cc2)c2cccs2)CC1 (stereo not shown)
(A) 31.25

###

Test system: biofilm-producing Staphylococcus epidermidis strains
experiment.description: Inhibition of biofilm formation (MBIC, resazurin)
Format: cell-based
run.parameters: clinical strain 73 (Table S4)
This listing pairs compounds with measured MBIC.

Worked cases, MBIC given:
compound: O=C(Nc1cccc(Cl)c1)NC1CCN(CCC(Oc2ccc(C(F)(F)F)cc2)c2cccs2)CC1 (stereo not shown)
MBIC: 7.8 µg/mL
--
compound: O=S(=O)(NC1CCN(CCC(Oc2ccc(C(F)(F)F)cc2)c2ccccc2)CC1)c1cccc(Cl)c1 (stereo not shown)
MBIC: 31.25 µg/mL
--
compound: O=S(=O)(NC1CCN(CCC(Oc2ccc(C(F)(F)F)cc2)c2cccs2)CC1)c1cccc(Cl)c1 (stereo not shown)
MBIC: 31.25 µg/mL

// below: MBIC requested for another compound
(Q) Quick one: give measured MBIC for CC(=O)NC[C@H]1CN(c2ccc(N3CCOCC3)c(F)c2)C(=O)O1 [linezolid, reference compound]
(A) 15.6 µg/mL

###

System: clinical MDR Staphylococcus epidermidis isolates
experiment.description: MIC, broth microdilution, 81 clinical MDR strains
Assay type: cell-based
run.parameters: Staphylococcus epidermidis, clinical strain 53 (Table S2); read-out: MIC
This listing pairs compounds with measured MIC.
I only need the number, in µg/mL, no unit after it.

compound: O=S(=O)(NC1CCN(CCC(Oc2ccc(C(F)(F)F)cc2)c2cccs2)CC1)c1cccc(Cl)c1 (stereo not drawn)
tested.target: clinical MDR Staphylococcus epidermidis isolates
quantity.name: MIC
result.number: 12.5

compound: O=C(Nc1cccc(Cl)c1)NC1CCN(CCC(Oc2ccc(C(F)(F)F)cc2)c2cccs2)CC1 (stereo not drawn)
tested.target: clinical MDR Staphylococcus epidermidis isolates
quantity.name: MIC
result.number: 3.12

compound: O=S(=O)(NC1CCN(CCC(Oc2ccc(C(F)(F)F)cc2)c2cccs2)CC1)c1cccc(Br)c1 (stereo not drawn)
tested.target: clinical MDR Staphylococcus epidermidis isolates
quantity.name: MIC
result.number: 50

(Q) Quick one: give measured MIC for CC(=O)NC[C@H]1CN(c2ccc(N3CCOCC3)c(F)c2)C(=O)O1 [linezolid, reference compound]
(A) 0.4

(Q) Quick one: give measured MIC for O=S(=O)(NC1CCN(CCC(Oc2ccc(C(F)(F)F)cc2)c2cccs2)CC1)c1cccc(C(F)(F)F)c1 (stereo not drawn)
(A) 50

(Q) Quick one: give measured MIC for O=S(=O)(NC1CCN(CCC(Oc2ccc(C(F)(F)F)cc2)c2ccccc2)CC1)c1cccc(Cl)c1 (stereo not drawn)
(A) 6.25

###

Tested on: biofilm-producing Staphylococcus epidermidis strains
experiment.description: Biofilm eradication (MBEC Assay Kit)
Format: cell-based
run.parameters: clinical strain 13 (Table S4)
quantity.name: MBEC (µg/mL)
I only need the number, in µg/mL, no unit after it.

Worked cases, MBEC given:
compound: O=C(Nc1cccc(Cl)c1)NC1CCN(CCC(Oc2ccc(C(F)(F)F)cc2)c2cccs2)CC1 (stereo not shown) [Compound 25]
result.number: 3.9
//
compound: O=S(=O)(NC1CCN(CCC(Oc2ccc(C(F)(F)F)cc2)c2cccs2)CC1)c1cccc(Cl)c1 (stereo not shown) [Compound 14]
result.number: 62.5
//
compound: CC(=O)NC[C@H]1CN(c2ccc(N3CCOCC3)c(F)c2)C(=O)O1 [linezolid, reference compound]
result.number: 7.8

(Q) Quick one: give measured MBEC for O=S(=O)(NC1CCN(CCC(Oc2ccc(C(F)(F)F)cc2)c2ccccc2)CC1)c1cccc(Cl)c1 (stereo not shown) [Compound 12]
(A) 62.5

###

Test system: biofilm-producing Staphylococcus epidermidis strains
experiment.description: Inhibition of biofilm formation (MBIC, resazurin)
Format: cell-based
run.parameters: clinical strain 49 (Table S4)
quantity.name: MBIC (µg/mL)
I only need the number, in µg/mL, no unit after it.

Worked cases, MBIC given:
compound: CC(=O)NC[C@H]1CN(c2ccc(N3CCOCC3)c(F)c2)C(=O)O1 [linezolid, reference compound]
unit: µg/mL
MBIC: 25

compound: O=S(=O)(NC1CCN(CCC(Oc2ccc(C(F)(F)F)cc2)c2ccccc2)CC1)c1cccc(Cl)c1 (stereo not shown)
unit: µg/mL
MBIC: 31.25

compound: O=C(Nc1cccc(Cl)c1)NC1CCN(CCC(Oc2ccc(C(F)(F)F)cc2)c2cccs2)CC1 (stereo not shown)
unit: µg/mL
MBIC: 15.6

// below: MBIC requested for another compound
(Q) Quick one: give measured MBIC for O=S(=O)(NC1CCN(CCC(Oc2ccc(C(F)(F)F)cc2)c2cccs2)CC1)c1cccc(Cl)c1 (stereo not shown)
(A) 31.25

###

This listing pairs compounds with measured MBIC.
System: biofilm-producing Staphylococcus epidermidis strains
experiment.description: Inhibition of biofilm formation (MBIC, resazurin)
Assay type: cell-based
run.parameters: clinical strain 13 (Table S4)
I only need the number, in µg/mL, no unit after it.

Worked cases, MBIC given:
compound: CC(=O)NC[C@H]1CN(c2ccc(N3CCOCC3)c(F)c2)C(=O)O1 [linezolid, reference compound]
MBIC [µg/mL]: 6.25

compound: O=S(=O)(NC1CCN(CCC(Oc2ccc(C(F)(F)F)cc2)c2ccccc2)CC1)c1cccc(Cl)c1 (stereo not shown)
MBIC [µg/mL]: 62.5

compound: O=S(=O)(NC1CCN(CCC(Oc2ccc(C(F)(F)F)cc2)c2cccs2)CC1)c1cccc(Cl)c1 (stereo not shown)
MBIC [µg/mL]: 62.5

// below: MBIC requested for another compound
(Q) Provide measured MBIC on biofilm-producing Staphylococcus epidermidis strains for O=C(Nc1cccc(Cl)c1)NC1CCN(CCC(Oc2ccc(C(F)(F)F)cc2)c2cccs2)CC1 (stereo not shown) please.
(A) 1.6

###

Test system: biofilm-producing Staphylococcus epidermidis strains
experiment.description: Biofilm eradication (MBEC Assay Kit)
Format: cell-based
run.parameters: clinical strain 26 (Table S4)
This listing pairs molecules with measured MBEC.
I only need the number, in µg/mL, no unit after it.

Worked cases, MBEC given:
molecule: O=S(=O)(NC1CCN(CCC(Oc2ccc(C(F)(F)F)cc2)c2cccs2)CC1)c1cccc(Cl)c1 (stereo not shown)
MBEC, µg/mL: 250

molecule: CC(=O)NC[C@H]1CN(c2ccc(N3CCOCC3)c(F)c2)C(=O)O1 [linezolid, reference compound]
MBEC, µg/mL: 50

(Q) Quick one: give measured MBEC for O=C(Nc1cccc(Cl)c1)NC1CCN(CCC(Oc2ccc(C(F)(F)F)cc2)c2cccs2)CC1 (stereo not shown)
(A) 31.25

(Q) Quick one: give measured MBEC for O=S(=O)(NC1CCN(CCC(Oc2ccc(C(F)(F)F)cc2)c2ccccc2)CC1)c1cccc(Cl)c1 (stereo not shown)
(A) 250

###

This listing pairs molecules with measured MBIC.
Tested on: biofilm-producing Staphylococcus epidermidis strains
experiment.description: Inhibition of biofilm formation (MBIC, resazurin)
Type: cell-based
run.parameters: clinical strain 12 (Table S4)
I only need the number, in µg/mL, no unit after it.

molecule: O=S(=O)(NC1CCN(CCC(Oc2ccc(C(F)(F)F)cc2)c2cccs2)CC1)c1cccc(Cl)c1 (stereo not shown)
tested.target: biofilm-producing Staphylococcus epidermidis strains
quantity.name: MBIC
unit: µg/mL
result.number: 125

(Q) Quick one: give measured MBIC for O=S(=O)(NC1CCN(CCC(Oc2ccc(C(F)(F)F)cc2)c2ccccc2)CC1)c1cccc(Cl)c1 (stereo not shown)
(A) 125

(Q) Quick one: give measured MBIC for O=C(Nc1cccc(Cl)c1)NC1CCN(CCC(Oc2ccc(C(F)(F)F)cc2)c2cccs2)CC1 (stereo not shown)
(A) 31.25

(Q) Quick one: give measured MBIC for CC(=O)NC[C@H]1CN(c2ccc(N3CCOCC3)c(F)c2)C(=O)O1 [linezolid, reference compound]
(A) 50

###

Test system: biofilm-producing Staphylococcus epidermidis strains
experiment.description: Inhibition of biofilm formation (MBIC, resazurin)
Format: cell-based
run.parameters: clinical strain 43 (Table S4)
quantity.name: MBIC
Hey, just the number and the unit after it is fine.

compound: CC(=O)NC[C@H]1CN(c2ccc(N3CCOCC3)c(F)c2)C(=O)O1 [linezolid, reference compound]
tested.target: biofilm-producing Staphylococcus epidermidis strains
result: 25 µg/mL

(Q) Quick one: give measured MBIC for O=S(=O)(NC1CCN(CCC(Oc2ccc(C(F)(F)F)cc2)c2ccccc2)CC1)c1cccc(Cl)c1 (stereo not shown) [Compound 12]
(A) 250 µg/mL

(Q) Quick one: give measured MBIC for O=S(=O)(NC1CCN(CCC(Oc2ccc(C(F)(F)F)cc2)c2cccs2)CC1)c1cccc(Cl)c1 (stereo not shown) [Compound 14]
(A) 250 µg/mL

(Q) Quick one: give measured MBIC for O=C(Nc1cccc(Cl)c1)NC1CCN(CCC(Oc2ccc(C(F)(F)F)cc2)c2cccs2)CC1 (stereo not shown) [Compound 25]
(A) 15.6 µg/mL
